Assignment: determine reported Kd for the given binders.
- measured target: T1, AFP158/HLA-A*02:01 complex (human)
- T1 construct: flowed over the chip in SPR; also called AFP158 pro
- method: SPR, scFv captured, pMHC in flow;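 also: complex injected at several concentrations over crude scFv, association then running-buffer dissociation, KD estimated from kinetic on- and off-rate constants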
Provide the reading as a plain figure in nM.

Input: Using known records, supply Kd for LH98G (scFv, AS170036 VL1VH1 scFv mutein) scFv: QSALTQPRSVSGSPGQSVTISCAGTSSDVGSENYVSWYQQHPGKAPKLMIYQVNKRASGVPDRFSGSKSGNTASLTISGLQAEDEADYYCASYRSSDGNIVFGGGTKLTVLGGGGSGGGGSGGGGSEVQLVESGGGLVQPGGSLRLSCAASGFTFSSYAMSWVRQAPGKGLEWVSTINSGTGSPYYADSVKGRFTISRDNSKNTLYLQMNSLRAEDTAVYYCAKNFFDGSWFLGPPAMDYWGQGTLVTVSSHHHHHH
Output: 280

Input: Read the entry LH98F (scFv, AS170036 VL1VH1 scFv mutein; also called AS170036 VL1VH1-VLH98F) scFv: QSALTQPRSVSGSPGQSVTISCAGTSSDVGSENYVSWYQQHPGKAPKLMIYQVNKRASGVPDRFSGSKSGNTASLTISGLQAEDEADYYCASYRSSDFNIVFGGGTKLTVLGGGGSGGGGSGGGGSEVQLVESGGGLVQPGGSLRLSCAASGFTFSSYAMSWVRQAPGKGLEWVSTINSGTGSPYYADSVKGRFTISRDNSKNTLYLQMNSLRAEDTAVYYCAKNFFDGSWFLGPPAMDYWGQGTLVTVSSHHHHHH and write its reported Kd.
Output: 74

Input: Provide Kd value for the following binder: LY93W (scFv, AS170036 VL1VH1 scFv mutein) scFv: QSALTQPRSVSGSPGQSVTISCAGTSSDVGSENYVSWYQQHPGKAPKLMIYQVNKRASGVPDRFSGSKSGNTASLTISGLQAEDEADYYCASWRSSDHNIVFGGGTKLTVLGGGGSGGGGSGGGGSEVQLVESGGGLVQPGGSLRLSCAASGFTFSSYAMSWVRQAPGKGLEWVSTINSGTGSPYYADSVKGRFTISRDNSKNTLYLQMNSLRAEDTAVYYCAKNFFDGSWFLGPPAMDYWGQGTLVTVSSHHHHHH
Output: 240

Input: Complete the entry with Kd for LY93L (scFv, AS170036 VL1VH1 scFv mutein) scFv: QSALTQPRSVSGSPGQSVTISCAGTSSDVGSENYVSWYQQHPGKAPKLMIYQVNKRASGVPDRFSGSKSGNTASLTISGLQAEDEADYYCASLRSSDHNIVFGGGTKLTVLGGGGSGGGGSGGGGSEVQLVESGGGLVQPGGSLRLSCAASGFTFSSYAMSWVRQAPGKGLEWVSTINSGTGSPYYADSVKGRFTISRDNSKNTLYLQMNSLRAEDTAVYYCAKNFFDGSWFLGPPAMDYWGQGTLVTVSSHHHHHH
Output: 180
